method notes: soluble on expression in E. coli; label from the status in PepcDB or PDB records
test readout: soluble on expression in E. coli

sequence chain	test readout	value reported
GSSHHHHHHSSGLVPRGSHMRIVFDIGGSVLVPENPDIDFIKEIAYQLTKVSEDHEVAVVVGGGKLARKYIEVAEKFNSSETFKDFIGIQITRANAMLLIAALREKAYPVVVEDFWEAWKAVQLKKIPVMGGTHPGHTTDAVAALLAEFLKADLLVVITNVDGVYTADPKKDPTAKKIKKMKPEELLEIVGKGIEKAGSSSVIDPLAAKIIARSGIKTIVIGKEDAKDLFRVIKGDHNGTTIEP	soluble on expression in E. coli	soluble
MSLKVATFIEPGKMVITDTPKPVIEQETDAVIKIVRACVCGSDLWWYRGISKRESGSFAGHEAIGIVEEVGTKVTDVSKGDFVIVPFTHGCGQCPSCKAGFDGNCTNHQAAKNVGYQGQYLRYTNANWALVKIPGQPSDYDNETLNSLLTLSDVMATGYHAAATAEVKEGDTVVVMGDGAVGLCGVIAAKMLGANRIIAMSRHKDRQELALTFGATDIVEERGDEAVKRVLDLTNQAGADAVLECVGTEQSVDTATQIARPGAVIGRVGIPQNPDMNTNNLFWKNIGLRGGIASVTTFDKSVLLDAVLTHKINPGLVFTKSFVLDDIQKAYEAMDKRDAIKSLVIVDEGHHHHHH	soluble on expression in E. coli	soluble
AQCEATIESNDAMQYDLKEMVVDKSCKQFTVHLKHVGKMAKSAMGHNWVLTKEADKEGVATDGMNAGLAQDYVKAGDTRVIAHTKVIGGGESDSVTFDVSKLTPGEAYAYFCSFPGHWAMHKGTLKLSN	soluble on expression in E. coli	soluble
MGGLFTGIALDSAGHDVTIAEQSAGDLRSRGGGIVAQQSIRQFLSRHDIVDPANITTRASERRFLTADGDVRTSTPDSMVFTSWDAVYRQLRAAFPDDRYHTGQTVTGVRATDGTVTFSDGDRTTADLVVAADGGQSTARAQLFPDADPEFADYVAWRGVVSEAELSDAVIDAFDGRFTFYQGEQMLILAYFIPGEDGNTAPGDRRLNWVWYDTLSGRERETIFTDTTGTSQQFSVSPGQLRDPVESHQRERAAETLPPVFTDLVATTAAPFVQAIYDLQSPQMTVDRVCLVGDAAFVARPHTAAGTSKAASDAVELKAALDRHSSLGGALASWDDARTDYGARLVAQGKRMGDERLSLGSLEHHHHHH	soluble on expression in E. coli	not soluble
MGPHFTLLLAALANCLCPGRPCIKCDQFVTDALKTFENTYLNDHLPHDIHKNVMRMVNHEVSSFGVVTSAEDSYLGAVDENTLEQATWSFLKDLKRITDSDLKGELFIKELLWMLRHQKDIFNNLARQFQKEVLCPNKCGVMSQTLIWCLKCEKQLHICRK	soluble on expression in E. coli	not soluble
MIRLIFLDIDKTLIPGYEPDPAKPIIEELKDMGFEIIFNSSKTRAEQEYYRKELEVETPFISENGSAIFIPKGYFPFDVKGKEVGNYIVIELGIRVEKIREELKKLENIYGLKYYGNSTKEEIEKFTGMPPELVPLAMEREYSETIFEWSRDGWEEVLVEGGFKVTMGSRFYTVHGNSDKGKAAKILLDFYKRLGQIESYAVGDSYNDFPMFEVVDKVFIVGSLKHKKAQNVSSIIDVLEVIKHHHHHH	soluble on expression in E. coli	soluble
